Biological target: T1, human GLP-1 receptor (hGLP-1r) (Homo sapiens, UniProt P43220)
T1 construct: expressed in transfected cells
T1 sequence (P43220 24-463): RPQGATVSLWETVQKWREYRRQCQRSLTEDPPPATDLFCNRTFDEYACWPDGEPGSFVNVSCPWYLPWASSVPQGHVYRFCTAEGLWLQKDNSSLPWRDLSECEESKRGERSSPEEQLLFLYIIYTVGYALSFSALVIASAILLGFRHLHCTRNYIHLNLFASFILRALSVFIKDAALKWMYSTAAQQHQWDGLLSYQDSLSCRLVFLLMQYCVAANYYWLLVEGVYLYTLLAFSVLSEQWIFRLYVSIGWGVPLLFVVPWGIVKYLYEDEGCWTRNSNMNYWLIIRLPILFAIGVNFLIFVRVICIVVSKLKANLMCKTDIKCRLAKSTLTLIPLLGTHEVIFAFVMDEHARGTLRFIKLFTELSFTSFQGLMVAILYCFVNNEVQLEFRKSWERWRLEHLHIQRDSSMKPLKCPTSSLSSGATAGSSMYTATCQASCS
Assay: BSA-cAMP assay, cells expressing human GLP-1 receptor
Assay type: cell-based
Details: BSA-cAMP assay; batch 1 unless a batch is given; read-out: cAMP activity hGLP1r (EC50)
Listing of recorded log10 of EC50 by entry.
// stored as log10 of EC50 expressed in nM

Exam item: May I ask what log10 of EC50 has been recorded for IP132 (protein, /note=“Description of Artificial Sequence Synthetic Peptide-linker-hinge polypeptide”) HGEGTFTSDVSSYLEGQAAKEFIAWLVKGGGGGGSGGGGSGGGGSGGGGSATHTCPPCPAPEF ?
Marked response: -1.40

Exam item: Next entry: IP197 (protein, /note=“Description of Artificial Sequence Synthetic Peptide-linker-hinge polypeptide”) YSEGTFTSDVSSYMERQAIDEFIAWLLAGAAAGGSGSTASSGSGSATGGGGAATHTCPPCPAPEF
Marked response: -0.11

Exam item: Now this one: IP203 (protein, /note=“Description of Artificial Sequence Synthetic Peptide-linker-hinge polypeptide”) HGEGTFTSDVSSYLEGQAAKEFIAWLVKGGAAAGGSGSTASSGSGSATGGGGAATHTCPPCPAPEF
Marked response: -1.38
